What CC50 was measured for each of the following?
Experiment: NOVARTIS: Cytotoxicity against human hepatocellular carcinoma cell line (Huh7)
Type: toxicity, cell-based, Huh-7
Conditions: Huh7 cells (hepatocellular carcinoma cell line)

Challenge: Entry C/C=C/c1n(C)c2ccccc2[n+]1C has what CC50?
Response given: > 10 µM

Challenge: Entry CCOc1ccccc1NC(=O)Nc1ccc2nc(N3CCN(C)CC3)cc(C)c2c1 has what CC50?
Response given: 21.4 µM

Challenge: Entry CCCN1CCN(C(=O)C(=O)Nc2ccc3nc4n(c(=O)c3c2)CCCCC4)CC1 has what CC50?
Response given: > 100 µM

Challenge: Entry S=C(NCc1ccco1)NN=CC=NNC(=S)NCc1ccco1 has what CC50?
Response given: > 10 µM

Challenge: Entry CN(C)c1ccc(C=NNc2ncnc3nc[nH]c23)cc1 has what CC50?
Response given: 11 µM

Challenge: Entry CC(C)CNc1nc(NCCCN2CCCCC2C)ncc1C(=O)NCCc1ccccc1 (stereo unspecified) has what CC50?
Response given: > 10 µM

Challenge: Entry COC(=O)c1cn([C@H]2C[C@@H](C(=O)NCc3ccc(OC)cc3)N(Cc3ccsc3)C2)nn1 has what CC50?
Response given: > 7.38 µM

Challenge: Entry CCC(CC)CN1CCC(O)(c2ccc3oc(C(=O)Nc4ccc(OC)cc4)cc3c2)CC1 has what CC50?
Response given: > 100 µM

Challenge: Entry CC(C)CNC(=O)c1cnc(NCCCN2CCCCC2C)nc1Nc1ccccc1 (stereo unspecified) has what CC50?
Response given: > 10 µM

Challenge: Entry Oc1ccc(-c2ccnc3cc(Cl)ccc23)cc1CNC1CCCCC1 has what CC50?
Response given: 5.94 µM

Challenge: Entry COc1cc(-c2nc3ccc(N4CCN(C)CC4)cc3[nH]2)cc(OC)c1OC has what CC50?
Response given: 21.2 µM

Challenge: Entry CC(C)(C)c1ccc(C(=O)C[n+]2cc(-c3ccccc3)n3c2CCC3)cc1 has what CC50?
Response given: 43 µM

Challenge: Entry COc1ccc(N2C(=O)C3C(C2=O)C2(c4ccccc4)C(=O)C3(c3ccccc3)C(c3ccc4c(c3)OCO4)=C2c2ccc3c(c2)OCO3)c([N+](=O)[O-])c1 (stereo unspecified) has what CC50?
Response given: > 100 µM

Challenge: Entry COc1cc(NC(C)CCCN(Cc2ccc(F)cc2)C(=O)C(c2ccccc2)c2ccccc2)c2ncccc2c1 (stereo unspecified) has what CC50?
Response given: > 3.47 µM

Challenge: Entry Cc1ccc(-n2c(C)c(C(=O)c3ccccc3)c3cc(O)ccc32)cc1 has what CC50?
Response given: > 100 µM

Challenge: Entry C=CCc1c(C)nc2ccccc2c1O has what CC50?
Response given: > 100 µM

Challenge: Entry COc1ccc(CN(CC2CCN(C(=O)c3ccccc3Cl)CC2)C(=O)c2ccc(Cl)cc2Cl)cc1 has what CC50?
Response given: 24.3 µM

Challenge: Entry Oc1ccc(C2Nc3ccc4ccccc4c3C3C=CCC32)cc1 (stereo unspecified) has what CC50?
Response given: > 100 µM

Challenge: Entry Cc1cc(/C=C2\Sc3ccccc3N2C)[n+](C)c2ccccc12 has what CC50?
Response given: 6.37 µM

Challenge: Entry Cc1ccccc1CN1CCN(C/C=C/c2ccccc2)CCC1=O has what CC50?
Response given: > 10 µM

Challenge: Entry CCN(CC)CCCN(Cc1cc2cc(OC)ccc2[nH]c1=O)C(=S)Nc1ccc(C)cc1 has what CC50?
Response given: 33 µM
